assay: Area under curve was determined in male rat; format: ADME, organism-based; conditions: in vivo
result.type: AUC (ng·h/mL)

chemical_structure=CC(=O)NC[C@H]1CN(c2ccc(N3CCC(=CC#N)CC3)c(F)c2)C(=O)O1 result_type=AUC units=ng·h/mL measured_value=6810
chemical_structure=CC(=O)NC[C@H]1CN(c2ccc(N3CCOCC3)c(F)c2)C(=O)O1 result_type=AUC units=ng·h/mL measured_value=4240

###

test system: Staphylococcus epidermidis; experiment: In vitro antibacterial activity against Staphylococcus epidermis C2235; type: functional
Each item that follows carries a reported MIC.
result.type: MIC (µg/mL)

chemical_structure=CC(=O)NC[C@H]1CN(c2ccc(N3CCC(=C(C#N)C#N)C3)c(F)c2)C(=O)O1 measured_value=4
chemical_structure=CO/N=C/C=C1CCN(c2ccc(N3C[C@H](CNC(C)=O)OC3=O)cc2F)CC1 measured_value=2
chemical_structure=CC(=O)NC[C@H]1CN(c2ccc(N3CCC(=Cc4cc(-c5csnc5C)no4)CC3)c(F)c2)C(=O)O1 measured_value=4
chemical_structure=CC(=O)NC[C@H]1CN(c2ccc(N3CCC(=CC#N)CC3)c(F)c2)C(=O)O1 measured_value=1
chemical_structure=CC(=O)NC[C@H]1CN(c2ccc(N3CCC(=C(C#N)C#N)CC3)c(F)c2)C(=O)O1 measured_value=2

###

experiment: Half-life in male rat; format: ADME, organism-based; details: in vivo
result.type: half-life (h)

chemical_structure=CC(=O)NC[C@H]1CN(c2ccc(N3CCC(=CC#N)CC3)c(F)c2)C(=O)O1 measured_value=8.14

###

Each item that follows carries a reported log10 MIC.
tested on: Enterococcus faecalis; test: In vitro antibacterial activity against Enterococcus faecalis C6291 (E. f. 1); format: functional
result.type: log10 MIC (log10 of the value in µg/mL)

compound=CC(=O)C=C1CCN(c2ccc(N3C[C@H](CNC(C)=O)OC3=O)cc2F)CC1 measured_value=1.20
compound=C/C(S)=N/C[C@H]1CN(c2ccc(N3CCC(=CC#N)CC3)c(F)c2)C(=O)O1 measured_value=0.00
compound="CC(=O)NC[C@H]1CN(c2ccc(N3CCC(=CC(C)OC(C)=O)CC3)c(F)c2)C(=O)O1 (stereo partly specified)" measured_value=0.90
compound=CCOC(=O)C=C1CCN(c2ccc(N3C[C@H](CNC(C)=O)OC3=O)cc2F)CC1 measured_value=0.90
compound="CN[C@H](CC(C)C)C(=O)N[C@H]1C(=O)N[C@@H](CC(N)=O)C(=O)N[C@H]2C(=O)N[C@H]3C(=O)N[C@H](C(=O)N[C@H](C(=O)O)c4cc(O)cc(O)c4-c4cc3ccc4O)[C@H](O)c3ccc(c(Cl)c3)Oc3cc2cc(c3O[C@@H]2O[C@H](CO)[C@@H](O)[C@H](O)[C@H]2O[C@H]2C[C@](C)(N)[C@H](O)[C@H](C)O2)Oc2ccc(cc2Cl)[C@H]1O [VANCOMYCIN]" measured_value=0.30
compound=CO/N=C/C=C1CCN(c2ccc(N3C[C@H](CNC(C)=O)OC3=O)cc2F)CC1 measured_value=0.60

###

Each item that follows carries a reported Cmax.
test: Cmax in male rat; assay type: ADME, organism-based; details: in vivo
result.type: Cmax (ng/mL)

chemical_structure=CC(=O)NC[C@H]1CN(c2ccc(N3CCOCC3)c(F)c2)C(=O)O1 measured_value=1390
chemical_structure=CC(=O)NC[C@H]1CN(c2ccc(N3CCC(=CC#N)CC3)c(F)c2)C(=O)O1 measured_value=1320

###

system: Enterococcus faecalis; assay: In vitro antibacterial activity against Enterococcus faecalis C6291 (E. f. 1); format: functional
Each item that follows carries a reported MIC.
result.type: MIC (µg/mL)

molecule=CCOC(=O)C(C)=C1CCN(c2ccc(N3C[C@H](CNC(C)=O)OC3=O)cc2F)CC1 result_type=MIC measured_value=8
molecule=CC(=O)NC[C@H]1CN(c2ccc(N3CCC(=CC#N)CC3)c(F)c2)C(=O)O1 result_type=MIC measured_value=2
molecule=CC(=O)NC[C@H]1CN(c2ccc(N3CCC(=CC(=O)[O-])CC3)c(F)c2)C(=O)O1.[Na+] result_type=MIC measured_value=8
molecule=CO/N=C(\C)C=C1CCN(c2ccc(N3C[C@H](CNC(C)=O)OC3=O)cc2F)CC1 result_type=MIC measured_value=8
molecule=CCOC(=O)C(C#N)=C1CCN(c2ccc(N3C[C@H](CNC(C)=O)OC3=O)cc2F)CC1 result_type=MIC measured_value=4
molecule=CC(=O)NC[C@H]1CN(c2ccc(N3CCC(=Cc4cc(-c5csnc5C)no4)CC3)c(F)c2)C(=O)O1 result_type=MIC measured_value=8
molecule=CC(=O)NC[C@H]1CN(c2ccc(N3CCC(=CC=O)CC3)c(F)c2)C(=O)O1 result_type=MIC measured_value=8
molecule=CC(=O)NC[C@H]1CN(c2ccc(N3CCC(=C/C=N/O)CC3)c(F)c2)C(=O)O1 result_type=MIC measured_value=4
molecule=CCOC(=O)C(Cl)=C1CCN(c2ccc(N3C[C@H](CNC(C)=O)OC3=O)cc2F)CC1 result_type=MIC measured_value=4
molecule="CC(=O)NC[C@H]1CN(c2ccc(N3CCC(=CC(C)O)CC3)c(F)c2)C(=O)O1 (some centres undefined)" result_type=MIC measured_value=8
molecule=CC(=O)NC[C@H]1CN(c2ccc(N3CCC(=C/C(C)=N/O)CC3)c(F)c2)C(=O)O1 result_type=MIC measured_value=4
molecule=CC(=O)NC[C@H]1CN(c2ccc(N3CCC(=C(C#N)C#N)CC3)c(F)c2)C(=O)O1 result_type=MIC measured_value=4
molecule=CC(=O)NC[C@H]1CN(c2ccc(N3CCC(=C(C)C#N)CC3)c(F)c2)C(=O)O1 result_type=MIC measured_value=2
molecule=CC(=O)NC[C@H]1CN(c2ccc(N3CCC(=Cc4cc(-c5cccs5)no4)CC3)c(F)c2)C(=O)O1 result_type=MIC measured_value=16

###

test system: Staphylococcus epidermidis; assay: In vitro antibacterial activity against Staphylococcus epidermis C2235; assay type: functional
Each item that follows carries a reported MIC.
result.type: MIC (µg/mL)

compound=CCOC(=O)C(C)=C1CCN(c2ccc(N3C[C@H](CNC(C)=O)OC3=O)cc2F)CC1 result_type=MIC measured_value=8
compound=CC(=O)NC[C@H]1CN(c2ccc(N3CCC(=Cc4cc(-c5cccs5)no4)CC3)c(F)c2)C(=O)O1 result_type=MIC measured_value=8
compound=CC(=O)NC[C@H]1CN(c2ccc(N3CCC(=C/C=N/O)CC3)c(F)c2)C(=O)O1 result_type=MIC measured_value=4
compound=CC(=O)NC[C@H]1CN(c2ccc(N3CCOCC3)c(F)c2)C(=O)O1 result_type=MIC measured_value=2
compound="CC(=O)NC[C@H]1CN(c2ccc(N3CCC(=CC(C)OC(C)=O)CC3)c(F)c2)C(=O)O1 (stereo partly drawn)" result_type=MIC measured_value=8
compound=CC(=O)NC[C@H]1CN(c2ccc(N3CCC(=CC=O)CC3)c(F)c2)C(=O)O1 result_type=MIC measured_value=2
compound=C/C(S)=N/C[C@H]1CN(c2ccc(N3CCC(=CC#N)CC3)c(F)c2)C(=O)O1 result_type=MIC measured_value=0.5
compound=CC(=O)NC[C@H]1CN(c2ccc(N3CC/C(=C(\C)C#N)C3)c(F)c2)C(=O)O1 result_type=MIC measured_value=1

Origin of values: ChEMBL document CHEMBL1136089
